system: NCI-H23; experiment: NCI tumour cell line growth inhibition, 48 h
Activity calls are given as the source filed them. Rule as the data show it: active = GI50 up to about 1.1 µM and inactive = higher.
Result type: GI50

These solved cases illustrate the format of a correct answer.
CN(C)c1nc2oc(-c3ccccc3)c(-c3ccccc3)c2c2nncn12 : > 100 µM (inactive)
CC1=C(C(=O)Nc2ccccc2)C(c2cc(Cl)cc(Cl)c2)C(C(=O)Nc2ccccc2)=C(C)N1 : 5.37 µM (inactive)
COc1ccc2c(c1)[n+]([O-])c(-c1ccc(C)cc1)c(N)[n+]2[O-] : 20.9 µM (inactive)
COC(=O)[C@@]12C3=NO[C@]1(C(=O)OC)C(O[Si](C)(C)C(C)(C)C)[C@H]1OC(C)(C)O[C@H]1[C@@H]2C(OCc1ccccc1)CC3 (stereo not given in full) : 80.4 µM (inactive)
Cc1nc2ccccc2c(=O)n1/N=C(\N=N\c1ccccc1Cl)c1ccccc1 : 44.5 µM (inactive)

List the reported GI50 of each molecule below.
1. O=C1CSC(c2cccc([N+](=O)[O-])c2)N1c1ccc(-n2c(-c3ccccc3)nc3ccccc3c2=O)cc1 (stereo not given)
2. N#C/N=C(\N)NCCO

1. > 100 µM (inactive)
2. > 100 µM (inactive)

Give GI50 for each of the items listed below.
1. O=C(O)c1ccc(NC(NC(=O)C(C(F)(F)F)C(F)(F)F)(C(F)(F)F)C(F)(F)F)cc1
2. CC(C)/C(Cl)=N/OC(=O)Nc1ccc(Br)cc1
3. CC(C)C(NCc1c2ccccc2nc2ccccc12)C(=O)O (stereo not given)

1. > 100 µM (inactive)
2. 13.3 µM (inactive)
3. 41.8 µM (inactive)

----------
system: SK-MEL-28; assay: NCI tumour cell line growth inhibition, 48 h
Calls of active or inactive are those of the source. Cut-off read from the data, not from the text of the source: active = GI50 up to about 1.1 µM and inactive = higher.
Choose the fitting class; nothing outside active, inactive is accepted.

Outcome logged for Cc1ccc2c(c1)CC1(Cc3cccc(C)c3C1=O)C2=O (stereo unspecified) in this assay: inactive

Could you check what this test reported for `Nc1cc(-c2ccccc2)nn1-c1nsc2ccccc12` ? inactive

Please let me know the test result on file for Cc1ccc2c(c1C)CC1(Cc3c(C)ccc(C)c3C1=O)C2=O (stereo unspecified) . inactive

Dear colleague, could you share the recorded outcome for `CCOC(=O)NC(Nc1ccc(OC(F)(F)F)cc1)(C(F)(F)F)C(F)(F)F` when you have a moment? inactive

# fetch the recorded call for `Cc1ccc(C(=O)N/N=C(\N=N\c2ccccc2)c2ccc(N(C)C)cc2)cc1` here inactive

Check the results log: what was the call for `O=c1[nH]c(=O)n(CCOCP(=O)(O)O)nc1Br` ? inactive

----------
system: MOLT-4; experiment: NCI tumour cell line growth inhibition, 48 h
Activity calls are given as the source filed them. Cut-off read from the data, not from the text of the source: active = GI50 up to about 1.1 µM and inactive = higher.
# output must be one of active, inactive

C[C@]12CC[C@H](O)C[C@@H]1CC[C@@H]1[C@@H]2CC[C@]2(C)[C@@H](C3=CC(=O)OC3)CC[C@]12O : active

Identify the outcome logged in this assay for the compound shown: `NCCNCCNc1ccc(NCCNCCN)c2c1C(=O)c1c(O)ccc(O)c1C2=O` inactive

Kindly provide the recorded test outcome for the following compound: `CSC1=Nc2ccccc2N=C(c2ccccc2)C1` inactive

// param item: Nc1cc(C(=O)NC2C3CC4CC(C3)CC2C4)nc(S)n1 (stereo not given) ; yields the recorded call inactive

----------
system: MDA-MB-231; assay: NCI tumour cell line growth inhibition, 48 h
Activity calls are given as the source filed them. No stated cut-off is given here; in the data, active = GI50 up to about 1.1 µM and inactive = higher.
Result category, one only: 1.0 for active, 0.0 for inactive

C=CC(=O)N1C/C(=C\c2ccccc2)C(=O)/C(=C/c2ccccc2)C1 : 0.0
C=C1C(=O)OC2C3C(=C)[C@@H](OC(C)=O)CC3C(C)=CC(OC(=O)C(C)(OC(C)=O)C(C)OC(C)=O)[C@@H]12 (some centres not stated) : 0.0

# fetch the recorded call for Cn1cc(C2NC(=O)c3ccccc3N2)c2ccccc21 (configuration not stated) here 0.0

Please state the recorded outcome for this compound: Cc1ccc2c(c1C)CC1(Cc3c(C)ccc(C)c3C1=O)C2=O (configuration not stated) 0.0

Please state the recorded outcome for this compound: `CC[C@@H]1C[C@@H](O)[C@@H]2[C@H](O)[C@H](O)CN2C1` 0.0

What classification did CCOP(=O)(OCC)C(Nc1cccc(F)c1)c1ccc(N(C)C)cc1 (configuration not stated) end up with in this test? 0.0

For this compound, state the assay outcome: `CCCCCCCCCCCCNC(C)=O` 0.0

What did this assay record as the result for `C1=N/CCNCCNCC/N=C/c2ccccc2OCc2cccc(n2)COc2ccccc2/1` ? 0.0

Provenance of the data: ChEMBL document CHEMBL1201862
